Biological target: Vhr1 (UniProt P40522)
Sequence: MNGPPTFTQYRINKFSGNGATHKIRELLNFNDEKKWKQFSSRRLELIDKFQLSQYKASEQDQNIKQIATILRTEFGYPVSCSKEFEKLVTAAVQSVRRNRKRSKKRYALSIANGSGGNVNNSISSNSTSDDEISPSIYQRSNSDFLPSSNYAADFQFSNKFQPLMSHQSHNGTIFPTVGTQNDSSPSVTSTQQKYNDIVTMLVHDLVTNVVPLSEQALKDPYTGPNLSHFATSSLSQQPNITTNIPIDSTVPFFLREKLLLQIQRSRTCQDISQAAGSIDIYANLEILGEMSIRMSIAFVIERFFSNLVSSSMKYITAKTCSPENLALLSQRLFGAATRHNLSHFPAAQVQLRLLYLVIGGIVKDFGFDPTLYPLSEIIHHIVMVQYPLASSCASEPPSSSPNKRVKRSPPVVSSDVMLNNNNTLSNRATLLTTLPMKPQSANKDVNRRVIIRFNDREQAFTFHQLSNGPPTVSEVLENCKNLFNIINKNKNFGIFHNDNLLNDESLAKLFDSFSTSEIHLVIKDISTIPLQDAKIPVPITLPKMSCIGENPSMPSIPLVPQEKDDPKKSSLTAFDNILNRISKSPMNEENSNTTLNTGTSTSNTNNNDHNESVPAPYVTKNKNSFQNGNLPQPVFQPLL
Assay: PBM E-score (8-mer binding enrichment) (E-score (-0.5 to 0.5)); higher = stronger / more preferred TF binding
Conditions: protein concentration: 200 nM; construct: GST-full length
The full ranking holds about 33,000 sequences; the median of “E-score (-0.5 to 0.5)” is about -0.012, and the highest 2% start at about 0.27. The full list was thinned out, with the highest values kept by preference.
# maps each entry to its PBM E-score

# RESIDUE CODES, MEASUREMENT TARGET, PBM E-score
measured = [
    ("AATGACGA", "Vhr1 (UniProt P40522)", -0.0492),
    ("ATCCATCG", "Vhr1 (UniProt P40522)", 0.0134),
    ("GAGTACTC", "Vhr1 (UniProt P40522)", 0.345),
    ("CAAGAGTA", "Vhr1 (UniProt P40522)", 0.167),
    ("GAGTAACC", "Vhr1 (UniProt P40522)", 0.106),
    ("CATCATCC", "Vhr1 (UniProt P40522)", 0.119),
    ("AATCATCT", "Vhr1 (UniProt P40522)", 0.185),
    ("AATGACTA", "Vhr1 (UniProt P40522)", 0.353),
    ("AATCATCA", "Vhr1 (UniProt P40522)", 0.374),
    ("AAGTAACA", "Vhr1 (UniProt P40522)", 0.0225),
    ("AATGACAC", "Vhr1 (UniProt P40522)", 0.0353),
    ("AACTACTC", "Vhr1 (UniProt P40522)", 0.19),
    ("ACTGTAGA", "Vhr1 (UniProt P40522)", 0.0811),
    ("CATGACAA", "Vhr1 (UniProt P40522)", 0.0092),
    ("CACTACTC", "Vhr1 (UniProt P40522)", 0.205),
    ("GACTAACA", "Vhr1 (UniProt P40522)", 0.354),
    ("TACTAACA", "Vhr1 (UniProt P40522)", 0.145),
    ("TATCATCA", "Vhr1 (UniProt P40522)", 0.147),
    ("GACTACTC", "Vhr1 (UniProt P40522)", 0.31),
    ("CTATCGGA", "Vhr1 (UniProt P40522)", -0.237),
    ("CATCATCG", "Vhr1 (UniProt P40522)", 0.16),
    ("GATGACCA", "Vhr1 (UniProt P40522)", 0.13),
]

* * *

Biological target: Vhr1 (UniProt P40522)
Sequence: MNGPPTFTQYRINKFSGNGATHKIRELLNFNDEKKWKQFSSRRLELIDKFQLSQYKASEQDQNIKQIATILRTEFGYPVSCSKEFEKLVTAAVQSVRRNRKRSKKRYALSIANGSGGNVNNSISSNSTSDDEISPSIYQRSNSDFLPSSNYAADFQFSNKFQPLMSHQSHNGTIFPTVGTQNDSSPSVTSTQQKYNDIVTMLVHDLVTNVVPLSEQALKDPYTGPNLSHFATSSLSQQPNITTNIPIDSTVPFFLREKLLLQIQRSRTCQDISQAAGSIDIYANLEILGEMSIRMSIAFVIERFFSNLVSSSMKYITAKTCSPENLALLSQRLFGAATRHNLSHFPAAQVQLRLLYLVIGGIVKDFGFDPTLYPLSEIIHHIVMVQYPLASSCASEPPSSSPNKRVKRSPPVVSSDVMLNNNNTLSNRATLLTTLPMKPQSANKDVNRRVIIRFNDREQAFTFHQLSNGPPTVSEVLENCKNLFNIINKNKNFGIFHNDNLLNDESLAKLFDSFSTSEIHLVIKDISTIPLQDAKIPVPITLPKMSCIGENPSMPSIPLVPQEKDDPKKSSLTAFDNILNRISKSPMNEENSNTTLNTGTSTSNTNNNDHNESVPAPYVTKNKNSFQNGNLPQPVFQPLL
Test: PBM E-score (8-mer binding enrichment) (E-score (-0.5 to 0.5)); higher = stronger / more preferred TF binding
Conditions: protein concentration: 200 nM; construct: GST-full length
Whole data set: some 33,000 sequences, median “E-score (-0.5 to 0.5)” near -0.012, cut for the highest 2% near 0.27. The entries come from a sample that favours the highest values as a whole.
So basically every entry gets a class from its PBM E-score, ranges being LOW: < 0.02; MEDIUM: ≥ 0.02 and < 0.3; HIGH: ≥ 0.3

# RESIDUE CODES, CAT
data = [
    ("GGTCACAA", "MEDIUM"),
    ("AAGACTCA", "HIGH"),
    ("CACCTAGA", "LOW"),
    ("GAGACTCC", "MEDIUM"),
    ("AACGACGC", "LOW"),
    ("TCTGCCCA", "LOW"),
    ("GTGCGCGA", "LOW"),
    ("CAGACTCA", "MEDIUM"),
    ("AGTCACAT", "HIGH"),
    ("AGTCACAA", "HIGH"),
    ("CGTCACAC", "LOW"),
    ("AAGACTCT", "MEDIUM"),
    ("CGTCACAA", "LOW"),
    ("CGTTAGTC", "MEDIUM"),
    ("AATTAGTA", "MEDIUM"),
    ("TAGTTATA", "LOW"),
    ("GAGACTCA", "HIGH"),
    ("AGTCACAC", "HIGH"),
    ("AATTAGTC", "MEDIUM"),
    ("AGTTAGTA", "MEDIUM"),
    ("AAGCTGGC", "LOW"),
    ("AGTAGGCA", "MEDIUM"),
]

* * *

Biological target: Vhr1 (UniProt P40522)
Sequence: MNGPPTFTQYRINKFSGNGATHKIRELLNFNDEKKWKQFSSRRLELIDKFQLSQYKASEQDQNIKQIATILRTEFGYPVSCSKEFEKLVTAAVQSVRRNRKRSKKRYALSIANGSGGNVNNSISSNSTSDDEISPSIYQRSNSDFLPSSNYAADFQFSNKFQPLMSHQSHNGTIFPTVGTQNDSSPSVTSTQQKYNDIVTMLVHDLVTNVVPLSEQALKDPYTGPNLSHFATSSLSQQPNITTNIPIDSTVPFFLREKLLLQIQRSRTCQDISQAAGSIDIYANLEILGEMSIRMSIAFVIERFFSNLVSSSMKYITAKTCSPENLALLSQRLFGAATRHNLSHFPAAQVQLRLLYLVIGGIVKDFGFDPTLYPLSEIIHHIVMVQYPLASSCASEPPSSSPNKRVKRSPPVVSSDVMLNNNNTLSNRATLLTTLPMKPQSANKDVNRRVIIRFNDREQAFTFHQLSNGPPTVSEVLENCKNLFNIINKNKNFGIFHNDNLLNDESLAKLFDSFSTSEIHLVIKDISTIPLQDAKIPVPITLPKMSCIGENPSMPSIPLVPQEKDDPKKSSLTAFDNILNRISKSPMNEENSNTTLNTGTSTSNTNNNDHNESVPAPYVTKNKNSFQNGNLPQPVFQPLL
Assay: PBM E-score (8-mer binding enrichment) (E-score (-0.5 to 0.5)); higher = stronger / more preferred TF binding
Details: protein concentration: 200 nM; construct: GST-full length
The full ranking holds about 33,000 sequences; the median of “E-score (-0.5 to 0.5)” is about -0.012, and the highest 2% start at about 0.27. The list comes from a sample in which the highest values are over-represented; it also holds close analogues and randomly drawn sequences.
# maps each entry to its PBM E-score
OUTCOME MEASURE: PBM E-score

# RESIDUE CODES, ENDPOINT RESULT
data = [
    ("TGGTTCAA", 0.289),
    ("TATGATGA", 0.286),
    ("GTGTCTTA", 0.0499),
    ("GTCTGTGA", 0.235),
    ("GCTGTCCC", -0.206),
    ("CTGGGCTC", -0.135),
    ("GACTCCTC", 0.4),
    ("AGATCTGC", -0.0821),
    ("ACACACTC", 0.293),
    ("GACTCCAC", 0.346),
    ("CTGGTAGA", 0.0523),
    ("CACTCCTA", -0.262),
    ("ACACACAA", 0.226),
    ("ACTTGGCG", 0.0405),
    ("GACTCCTA", 0.384),
    ("ACTGAGTA", 0.263),
    ("CAAGAGTC", 0.296),
    ("GAAGAGTC", 0.194),
    ("AGATTCCA", 0.00955),
    ("GACTCCAA", 0.237),
    ("CTCCTCTA", -0.189),
    ("AGAGTTTG", 0.0245),
    ("GAGTTAGA", -0.0441),
    ("GGCCAGGA", -0.105),
    ("TGATTCCA", 0.364),
    ("AGTGGGAC", 0.0716),
    ("TGATTCAA", 0.326),
    ("AAAGAGTC", 0.0469),
    ("ACTGAGTG", 0.0665),
    ("AGCTGCCT", -0.219),
    ("GTCAGGTA", 0.126),
    ("TTGGTAAA", -0.12),
    ("CATGATGA", 0.254),
    ("TAGCCTGA", 0.0109),
    ("CAAGCTCG", 0.0842),
    ("ACTGAGCC", 0.219),
    ("AGTCCCCG", 0.0704),
    ("ACAGTATC", -0.14),
    ("ATTCATAG", 0.0981),
    ("ATGGGCTG", 0.198),
    ("ACAGTATA", 0.11),
    ("CGGTTCAA", 0.0706),
    ("GGATTCAA", -0.0312),
    ("GAAGGGTA", 0.0935),
    ("CGTTTTTC", -0.141),
    ("AGGTTCAA", 0.0239),
]
